Cited source: patent US20100196385A1

biological target: DLL4 extracellular domain (R&D systems, catalog #1506-D4/CF) (UniProt Q9NR61 27-529, limits assumed); test: cell-based or functional assay
Sequence (Q9NR61 27-529 limits assumed): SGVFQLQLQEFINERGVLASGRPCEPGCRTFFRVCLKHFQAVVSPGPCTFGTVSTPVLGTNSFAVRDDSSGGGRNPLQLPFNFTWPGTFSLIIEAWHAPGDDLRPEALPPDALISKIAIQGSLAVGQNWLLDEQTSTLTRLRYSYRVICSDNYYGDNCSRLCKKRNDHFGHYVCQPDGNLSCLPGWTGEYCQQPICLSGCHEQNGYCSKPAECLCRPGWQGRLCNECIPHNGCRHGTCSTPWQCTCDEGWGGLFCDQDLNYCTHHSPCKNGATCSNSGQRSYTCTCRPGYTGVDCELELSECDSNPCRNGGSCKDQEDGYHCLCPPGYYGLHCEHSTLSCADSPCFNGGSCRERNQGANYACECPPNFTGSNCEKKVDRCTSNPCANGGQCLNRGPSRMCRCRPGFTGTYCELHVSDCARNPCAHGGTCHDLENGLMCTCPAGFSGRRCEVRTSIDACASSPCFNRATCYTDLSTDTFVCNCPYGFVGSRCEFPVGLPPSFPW
We begin with a simple list: items and their reported % inhibition 1 µg/ml, N = 2 (HUVEC proliferation on coated DLL4).
Return type: number; implicit unit %.

Binder	Units text	Measured value
3A7 (antibody, IgG4, V domains shown, Fully human; also used where no isotype is printed) VH: EVQVVESGGGLVQPGGSLRLSCEASGFTFSNYWMIWVRQAPGKGLEWVASIKEDGSEKYYVDSVKGRFTISRDNAKSSLYLQMNSLRAEDTAVYYCVRDWELRGHYYYHGMDVWGQGTTVTVSS VL: DIQMTQSPSSLSASVGDRVTITCRASLDIRNDLGWFLQKPGKAPKRLIYAASSLQSGVPSRFSGSGSGTEFTLTINSLQPEDFATYYCLQHRNYPFTFGPGTKVDFK	%	80

From here, focus on the item given below.
[in] Form field: reported % inhibition 1 µg/ml, N = 2 (HUVEC proliferation on coated DLL4) of 17F3 (antibody, IgG2, V domains shown, Fully human; also used where no isotype is printed) VH: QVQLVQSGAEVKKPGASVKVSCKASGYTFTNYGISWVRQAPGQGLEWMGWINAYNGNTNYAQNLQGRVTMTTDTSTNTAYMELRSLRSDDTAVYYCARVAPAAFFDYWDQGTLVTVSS VL: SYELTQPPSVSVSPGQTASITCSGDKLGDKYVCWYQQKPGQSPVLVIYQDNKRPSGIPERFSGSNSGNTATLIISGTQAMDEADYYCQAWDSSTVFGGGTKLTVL
[out] 35
